meta.source: ChEMBL document CHEMBL4130462

# System: Mycobacterium avium
# run.conditions: isolate MAV3
Recorded MIC values for a group of compounds are listed next.
Phrase the answer as number then unit, nothing more needed.

compound	system.tested	result
CSc1ccc2c(c1)N(CCC1CCCCN1C)c1ccccc1S2 (stereo not given)	Mycobacterium avium	16 µg/mL
CCCOc1ccc(-c2cn(CCN(CC)CC)c3ccccc3c2=O)cc1	Mycobacterium avium	16 µg/mL
CCCOc1ccc(-c2cn(CCN3CCCCCC3)c3ccccc3c2=O)cc1	Mycobacterium avium	16 µg/mL
CN(C)CCCN1c2ccccc2Sc2ccc(Cl)cc21	Mycobacterium avium	8 µg/mL

May I ask what MIC has been recorded for `CCCOc1ccc(-c2cn(CCN3CCCCC3)c3ccccc3c2=O)cc1` ?
16 µg/mL

---

# Tested on: Mycolicibacterium smegmatis
# experiment.summary: Antimycobacterial activity against Mycobacterium smegmatis str. MC2 155 assessed as reduction in bacterial viability incubated for 3 days by MTT assay
# Type: organism-based
# run.conditions: 72 h
Recorded MIC values for a group of compounds are listed next.
API: value field is a number in µg/mL; no unit string.

compound	system.tested	quantity.unit	MIC
COc1ccc(CCN(C)CCCC(C#N)(c2ccc(OC)c(OC)c2)C(C)C)cc1OC (configuration not stated)	Mycolicibacterium smegmatis	µg/mL	800

May I ask what MIC has been recorded for `CCCOc1ccc(-c2cn(CCN(CC)CC)c3ccccc3c2=O)cc1` ?
256

Moving on to `CCCOc1ccc(-c2cn(C)c3ccccc3c2=O)cc1`
256

Moving on to `CN(C)CCCN1c2ccccc2Sc2ccc(Cl)cc21`
60

Moving on to `CCCOc1ccc(-c2cn(CCN3CCCCCC3)c3ccccc3c2=O)cc1`
128

---

# System: Mycobacterium avium
# run.conditions: isolate MAV4
# Description: Inhibition of multidrug resistance efflux pump in Mycobacterium avium isolate MAV4 assessed as potentiation of clarithromycin -induced antibacterial activity by measuring clarithromycin MIC at 1/4 MIC incubated for 3 days by MTT assay
experimental.endpoint: MIC (µg/mL)
API: value field is a number in µg/mL; no unit string.

Provide the documented MIC with Mycobacterium avium as the system for `CCCOc1ccc(-c2cn(CCN3CCCCCC3)c3ccccc3c2=O)cc1`
4

Moving on to `CCCOc1ccc(-c2cn(CCN(CC)CC)c3ccccc3c2=O)cc1`
8

Moving on to `CN(C)CCCN1c2ccccc2Sc2ccc(Cl)cc21`
2

Moving on to CSc1ccc2c(c1)N(CCC1CCCCN1C)c1ccccc1S2 (stereo not given)
4

Moving on to `CCCOc1ccc(-c2cn(CCN3CCCCC3)c3ccccc3c2=O)cc1`
1

---

MIC data for Mycobacterium avium subsp. avium ATCC 25291 follow.
API: value field is a number in µg/mL; no unit string.

compound	MIC / µg/mL
CCCOc1ccc(-c2cn(CCN(CC)CC)c3ccccc3c2=O)cc1	64

Read the next record carefully.
Provide the documented MIC with Mycobacterium avium subsp. avium ATCC 25291 as the system for CSc1ccc2c(c1)N(CCC1CCCCN1C)c1ccccc1S2 (stereo not given) [THIORIDAZINE]
32

---

# Test system: Mycobacterium avium
# experiment.summary: Antimycobacterial activity against Mycobacterium avium isolate MAV3 assessed as reduction in bacterial viability incubated for 3 days by MTT assay
# Format: organism-based
# run.conditions: 72 h
Label condition met when MIC is strictly below 300 µg/mL; at or above that, label condition not met.

compound	class.assignment
CN(C)CCCN1c2ccccc2Sc2ccc(Cl)cc21 [CHLORPROMAZINE]	condition met
COc1ccc(CCN(C)CCCC(C#N)(c2ccc(OC)c(OC)c2)C(C)C)cc1OC (stereo unspecified)	condition not met
CC[C@H]1OC(=O)[C@H](C)[C@@H](O[C@H]2C[C@@](C)(OC)[C@@H](O)[C@H](C)O2)[C@H](C)[C@@H](O[C@@H]2O[C@H](C)C[C@H](N(C)C)[C@H]2O)[C@](C)(O)C[C@@H](C)C(=O)[C@H](C)[C@@H](O)[C@]1(C)O [ERYTHROMYCIN]	condition not met
CCCOc1ccc(-c2cn(CCN3CCCCC3)c3ccccc3c2=O)cc1	condition met
CC[C@H]1OC(=O)[C@H](C)[C@@H](O[C@H]2C[C@@](C)(OC)[C@@H](O)[C@H](C)O2)[C@H](C)[C@@H](O[C@@H]2O[C@H](C)C[C@H](N(C)C)[C@H]2O)[C@](C)(O)C[C@@H](C)CN(C)[C@H](C)[C@@H](O)[C@]1(C)O [AZITHROMYCIN]	condition met

Threshold test, MIC < 300 µg/mL: CC1COc2c(N3CCN(C)CC3)c(F)cc3c(=O)c(C(=O)O)cn1c23 (stereo unspecified) [OFLOXACIN]
condition met
